- system-tested: Glycogen synthase kinase-3 (Sus scrofa, UniProt B2LUN4+I6LNT8)
- test-method-notes: Inhibition of pig brain GSK-3alpha/beta using YRRAAVPPSPSLSRHSSPHQSpEDEEE as substrate
Below: a set of entries, each annotated with reported IC50.
measured-endpoint: IC50 (nM)

[[record]]
compound_structure_string = "Nc1ncc(-c2ccc(C(F)(F)F)cc2)c(-c2c[nH]c3cc(Br)ccc23)n1"
measured_endpoint = "IC50"
units_symbol = "nM"
limit_operator = "="
result_value = 6100

[[record]]
compound_structure_string = "CC(=O)c1ccc(-c2cnc(N)nc2-c2c[nH]c3cc(Br)ccc23)cc1"
measured_endpoint = "IC50"
units_symbol = "nM"
limit_operator = "="
result_value = 2000

[[record]]
compound_structure_string = "Nc1nccc(-c2c[nH]c3c([N+](=O)[O-])cccc23)n1"
measured_endpoint = "IC50"
units_symbol = "nM"
limit_operator = ">"
result_value = 10000

[[record]]
compound_structure_string = "Nc1ccc2c(-c3nc(N)ncc3I)c[nH]c2c1"
measured_endpoint = "IC50"
units_symbol = "nM"
limit_operator = "="
result_value = 4200

[[record]]
compound_structure_string = "COc1cccc(-c2cnc(N)nc2-c2c[nH]c3c(Br)cccc23)c1"
measured_endpoint = "IC50"
units_symbol = "nM"
limit_operator = ">"
result_value = 10000

[[record]]
compound_structure_string = "Nc1nccc(-c2c[nH]c3ccc(Br)cc23)n1"
measured_endpoint = "IC50"
units_symbol = "nM"
limit_operator = "="
result_value = 1300

[[record]]
compound_structure_string = "CC(=O)c1ccc(-c2cnc(N)nc2-c2c[nH]c3c(Br)cccc23)cc1"
measured_endpoint = "IC50"
units_symbol = "nM"
limit_operator = "="
result_value = 4500

[[record]]
compound_structure_string = "CC(=O)c1ccc(-c2cnc(N)nc2-c2c[nH]c3ccc(Br)cc23)cc1"
measured_endpoint = "IC50"
units_symbol = "nM"
limit_operator = "="
result_value = 680

[[record]]
compound_structure_string = "CC(=O)Nc1ccc(-c2cnc(N)nc2-c2c[nH]c3c(Br)cccc23)cc1"
measured_endpoint = "IC50"
units_symbol = "nM"
limit_operator = "="
result_value = 2200

[[record]]
compound_structure_string = "CC(=O)Nc1ccc(-c2cnc(N)nc2-c2c[nH]c3ccc(Br)cc23)cc1"
measured_endpoint = "IC50"
units_symbol = "nM"
limit_operator = "="
result_value = 400

[[record]]
compound_structure_string = "CC(=O)Nc1ccc(-c2cnc(N)nc2-c2c[nH]c3cc(Br)ccc23)cc1"
measured_endpoint = "IC50"
units_symbol = "nM"
limit_operator = "="
result_value = 1600


====

pIC50: −log10 of the molar value.
The following compounds have recorded pIC50 on Dual specificity protein kinase CLK1 (Homo sapiens).
Sequence (P49759 whole entry): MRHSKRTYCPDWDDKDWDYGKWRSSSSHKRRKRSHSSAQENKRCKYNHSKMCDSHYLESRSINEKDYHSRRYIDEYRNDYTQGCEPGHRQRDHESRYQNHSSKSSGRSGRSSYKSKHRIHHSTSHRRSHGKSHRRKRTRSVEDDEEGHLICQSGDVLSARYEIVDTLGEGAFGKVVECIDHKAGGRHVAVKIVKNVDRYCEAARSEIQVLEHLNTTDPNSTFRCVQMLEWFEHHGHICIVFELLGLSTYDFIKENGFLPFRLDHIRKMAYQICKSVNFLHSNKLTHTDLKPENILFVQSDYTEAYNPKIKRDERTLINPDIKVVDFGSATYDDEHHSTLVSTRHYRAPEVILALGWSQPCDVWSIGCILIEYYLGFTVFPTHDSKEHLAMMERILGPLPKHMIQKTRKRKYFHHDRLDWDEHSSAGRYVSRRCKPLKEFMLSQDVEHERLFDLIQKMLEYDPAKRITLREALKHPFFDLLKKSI
measured-endpoint: pIC50

[[record]]
compound_structure_string = "CC(=O)Nc1ccc(-c2cnc(N)nc2-c2c[nH]c3cc(Br)ccc23)cc1"
measured_endpoint = "pIC50"
limit_operator = "="
result_value = 6.28

[[record]]
compound_structure_string = "Nc1ccc2[nH]cc(-c3nc(N)ncc3I)c2c1"
measured_endpoint = "pIC50"
limit_operator = "="
result_value = 6.21

[[record]]
compound_structure_string = "CC(=O)Nc1ccc(-c2cnc(N)nc2-c2c[nH]c3c(Br)cccc23)cc1"
measured_endpoint = "pIC50"
limit_operator = "="
result_value = 7.06

[[record]]
compound_structure_string = "Nc1ncc(-c2ccc(C(F)(F)F)cc2)c(-c2c[nH]c3ccc(Br)cc23)n1"
measured_endpoint = "pIC50"
limit_operator = "<"
result_value = 5.00

[[record]]
compound_structure_string = "CC(=O)Nc1ccc(-c2cnc(N)nc2-c2c[nH]c3cccc(Br)c23)cc1"
measured_endpoint = "pIC50"
limit_operator = "<"
result_value = 5.00

[[record]]
compound_structure_string = "Nc1ncc(I)c(-c2c[nH]c3cc([N+](=O)[O-])ccc23)n1"
measured_endpoint = "pIC50"
limit_operator = "="
result_value = 7.17

[[record]]
compound_structure_string = "CC(=O)Nc1ccc(-c2cnc(N)nc2-c2c[nH]c3ccc(Br)cc23)cc1"
measured_endpoint = "pIC50"
limit_operator = "="
result_value = 6.12

[[record]]
compound_structure_string = "Nc1ncc(I)c(-c2c[nH]c3cccc([N+](=O)[O-])c23)n1"
measured_endpoint = "pIC50"
limit_operator = "="
result_value = 5.15

[[record]]
compound_structure_string = "Nc1ncc(I)c(-c2c[nH]c3c(Br)cccc23)n1"
measured_endpoint = "pIC50"
limit_operator = "="
result_value = 7.38

[[record]]
compound_structure_string = "Nc1ncc(I)c(-c2c[nH]c3cccc(N)c23)n1"
measured_endpoint = "pIC50"
limit_operator = "="
result_value = 6.00

[[record]]
compound_structure_string = "Nc1ncc(I)c(-c2c[nH]c3cc(Br)ccc23)n1"
measured_endpoint = "pIC50"
limit_operator = "="
result_value = 7.49

[[record]]
compound_structure_string = "COc1cccc(-c2cnc(N)nc2-c2c[nH]c3cccc(Br)c23)c1"
measured_endpoint = "pIC50"
limit_operator = "="
result_value = 5.89

[[record]]
compound_structure_string = "Nc1ncc(I)c(-c2c[nH]c3ccc([N+](=O)[O-])cc23)n1"
measured_endpoint = "pIC50"
limit_operator = "="
result_value = 6.92

[[record]]
compound_structure_string = "Nc1nccc(-c2c[nH]c3ccccc23)n1"
measured_endpoint = "pIC50"
limit_operator = "="
result_value = 6.28

[[record]]
compound_structure_string = "Nc1nccc(-c2c[nH]c3c([N+](=O)[O-])cccc23)n1"
measured_endpoint = "pIC50"
limit_operator = "="
result_value = 7.15

[[record]]
compound_structure_string = "Nc1ncc(-c2ccc(C(F)(F)F)cc2)c(-c2c[nH]c3c(Br)cccc23)n1"
measured_endpoint = "pIC50"
limit_operator = "="
result_value = 5.82

[[record]]
compound_structure_string = "Nc1ncc(I)c(-c2c[nH]c3cccc(Br)c23)n1"
measured_endpoint = "pIC50"
limit_operator = "="
result_value = 5.64

[[record]]
compound_structure_string = "Nc1nccc(-c2c[nH]c3cc(Br)ccc23)n1"
measured_endpoint = "pIC50"
limit_operator = "="
result_value = 6.92

[[record]]
compound_structure_string = "COc1cccc(-c2cnc(N)nc2-c2c[nH]c3c(Br)cccc23)c1"
measured_endpoint = "pIC50"
limit_operator = "="
result_value = 6.06

[[record]]
compound_structure_string = "COc1cccc(-c2cnc(N)nc2-c2c[nH]c3cc(Br)ccc23)c1"
measured_endpoint = "pIC50"
limit_operator = "="
result_value = 5.64

[[record]]
compound_structure_string = "Nc1nccc(-c2c[nH]c3cc([N+](=O)[O-])ccc23)n1"
measured_endpoint = "pIC50"
limit_operator = "="
result_value = 6.42

[[record]]
compound_structure_string = "Nc1ncc(-c2ccc(C(F)(F)F)cc2)c(-c2c[nH]c3cc(Br)ccc23)n1"
measured_endpoint = "pIC50"
limit_operator = "<"
result_value = 5.00

[[record]]
compound_structure_string = "Nc1ncc(I)c(-c2c[nH]c3ccc(Br)cc23)n1"
measured_endpoint = "pIC50"
limit_operator = "="
result_value = 6.74

[[record]]
compound_structure_string = "Nc1nccc(-c2c[nH]c3c(Br)cccc23)n1"
measured_endpoint = "pIC50"
limit_operator = "="
result_value = 7.19

[[record]]
compound_structure_string = "Nc1ncc(I)c(-c2c[nH]c3ccccc23)n1"
measured_endpoint = "pIC50"
limit_operator = "="
result_value = 7.52

[[record]]
compound_structure_string = "Nc1ccc2c(-c3nc(N)ncc3I)c[nH]c2c1"
measured_endpoint = "pIC50"
limit_operator = "="
result_value = 7.10

[[record]]
compound_structure_string = "CC(=O)c1ccc(-c2cnc(N)nc2-c2c[nH]c3c(Br)cccc23)cc1"
measured_endpoint = "pIC50"
limit_operator = "="
result_value = 6.42

[[record]]
compound_structure_string = "Nc1nccc(-c2c[nH]c3ccc(Br)cc23)n1"
measured_endpoint = "pIC50"
limit_operator = "="
result_value = 6.66

[[record]]
compound_structure_string = "Nc1ncc(I)c(-c2c[nH]c3c([N+](=O)[O-])cccc23)n1"
measured_endpoint = "pIC50"
limit_operator = "="
result_value = 7.39

[[record]]
compound_structure_string = "COc1cccc(-c2cnc(N)nc2-c2c[nH]c3ccc(Br)cc23)c1"
measured_endpoint = "pIC50"
limit_operator = "="
result_value = 5.60

[[record]]
compound_structure_string = "CC(=O)c1ccc(-c2cnc(N)nc2-c2c[nH]c3cc(Br)ccc23)cc1"
measured_endpoint = "pIC50"
limit_operator = "="
result_value = 5.74

[[record]]
compound_structure_string = "CC(=O)c1ccc(-c2cnc(N)nc2-c2c[nH]c3ccc(Br)cc23)cc1"
measured_endpoint = "pIC50"
limit_operator = "="
result_value = 5.80

[[record]]
compound_structure_string = "Nc1nccc(-c2c[nH]c3cccc(Br)c23)n1"
measured_endpoint = "pIC50"
limit_operator = "="
result_value = 5.85

[[record]]
compound_structure_string = "Nc1ncc(-c2ccc(C(F)(F)F)cc2)c(-c2c[nH]c3cccc(Br)c23)n1"
measured_endpoint = "pIC50"
limit_operator = "="
result_value = 5.89

[[record]]
compound_structure_string = "Nc1ncc(I)c(-c2c[nH]c3c(N)cccc23)n1"
measured_endpoint = "pIC50"
limit_operator = "="
result_value = 7.59


Values compiled from ChEMBL document CHEMBL1799982.
